- assay-info: Compound was evaluated for its stability and enzymatic cleavage of dipeptide linker at pH 7, 37 degree C.; 5-6 h
- Format: ADME
measured-property: half-life (h)
Return type: number; implicit unit h.

The compound identified as CC[C@]1(OC(=O)OCc2ccc(NC(=O)[C@H](CCCCN)NC(=O)[C@H](Cc3ccccc3)NC(=O)CCCCCN3C(=O)CC(SCCO)C3=O)cc2)C(=O)OCc2c1cc1n(c2=O)Cc2cc3ccccc3nc2-1 (stereo partly specified) registered its half-life at 6

---

- assay-info: Compound was evaluated for its stability and enzymatic cleavage of dipeptide linker at pH5, 37 degree C.; 5-6 h
- Type: ADME
- study-conditions: pH 5
measured-property: half-life

The compound identified as CC[C@]1(OC(=O)OCc2ccc(NC(=O)[C@H](CCCCN)NC(=O)[C@H](Cc3ccccc3)NC(=O)CCCCCN3C(=O)CC(SCCO)C3=O)cc2)C(=O)OCc2c1cc1n(c2=O)Cc2cc3ccccc3nc2-1 (stereo partly specified) registered its half-life at 6 h
